In this section, each of the molecules is paired with its reported Urine Volume (% decrease).
Target: Vasopressin V2 (Rattus norvegicus, UniProt Q00788)
Construct: Male or female normotensive Sprague-Dawley rats; from tissue; host or cells: whole living Sprague-Dawley rat (V2 receptors of the kidney collecting ducts)
Sequence (Q00788 whole entry): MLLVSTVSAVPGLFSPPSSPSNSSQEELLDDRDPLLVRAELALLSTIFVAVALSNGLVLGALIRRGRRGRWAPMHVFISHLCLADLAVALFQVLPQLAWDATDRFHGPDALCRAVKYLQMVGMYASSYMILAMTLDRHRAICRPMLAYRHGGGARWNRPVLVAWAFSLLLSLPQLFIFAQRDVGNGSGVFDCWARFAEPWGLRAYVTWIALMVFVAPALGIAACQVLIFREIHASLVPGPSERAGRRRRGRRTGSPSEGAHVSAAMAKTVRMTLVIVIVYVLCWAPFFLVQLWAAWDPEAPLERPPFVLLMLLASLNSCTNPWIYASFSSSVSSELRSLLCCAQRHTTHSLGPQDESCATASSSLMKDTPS
Test: Vasopressin V2 agonist effects of test compounds in normal conscious water-loaded rats
Format: in vivo
Details: percent decrease in urine volume vs. control; oral dose of 10 mg/Kg; urine collected for four hours; Sprague-Dawley (CD) rats
Write it as a number; the unit % decrease goes unstated.

Worked examples follow.
>  <Smiles Notation>
O=C(c1ccc2c(c1)CCO2)N1Cc2cccn2Cc2ccccc21

>  <Uom>
% decrease

>  <Urine Volume (% decrease)>
32

$$$$
>  <Smiles Notation>
O=C(c1ccc2ncsc2c1)N1Cc2cccn2Cc2ccccc21

>  <Uom>
% decrease

>  <Urine Volume (% decrease)>
19

$$$$
>  <Smiles Notation>
O=C(c1ccc2c(c1)OCO2)N1Cc2cccn2Cc2ccccc21

>  <Uom>
% decrease

>  <Urine Volume (% decrease)>
23

$$$$

Note: attention shifts to another entry.
QUERY: I am curious: what Urine Volume (% decrease) value has been reported for `Cn1ccc2cc(C(=O)N3Cc4cccn4Cc4ccccc43)ccc21` ?
RESULT: 66

Origin of values: patent US6344451B1
